- tested-on: furin, P09958
- Sequence (P09958 whole entry): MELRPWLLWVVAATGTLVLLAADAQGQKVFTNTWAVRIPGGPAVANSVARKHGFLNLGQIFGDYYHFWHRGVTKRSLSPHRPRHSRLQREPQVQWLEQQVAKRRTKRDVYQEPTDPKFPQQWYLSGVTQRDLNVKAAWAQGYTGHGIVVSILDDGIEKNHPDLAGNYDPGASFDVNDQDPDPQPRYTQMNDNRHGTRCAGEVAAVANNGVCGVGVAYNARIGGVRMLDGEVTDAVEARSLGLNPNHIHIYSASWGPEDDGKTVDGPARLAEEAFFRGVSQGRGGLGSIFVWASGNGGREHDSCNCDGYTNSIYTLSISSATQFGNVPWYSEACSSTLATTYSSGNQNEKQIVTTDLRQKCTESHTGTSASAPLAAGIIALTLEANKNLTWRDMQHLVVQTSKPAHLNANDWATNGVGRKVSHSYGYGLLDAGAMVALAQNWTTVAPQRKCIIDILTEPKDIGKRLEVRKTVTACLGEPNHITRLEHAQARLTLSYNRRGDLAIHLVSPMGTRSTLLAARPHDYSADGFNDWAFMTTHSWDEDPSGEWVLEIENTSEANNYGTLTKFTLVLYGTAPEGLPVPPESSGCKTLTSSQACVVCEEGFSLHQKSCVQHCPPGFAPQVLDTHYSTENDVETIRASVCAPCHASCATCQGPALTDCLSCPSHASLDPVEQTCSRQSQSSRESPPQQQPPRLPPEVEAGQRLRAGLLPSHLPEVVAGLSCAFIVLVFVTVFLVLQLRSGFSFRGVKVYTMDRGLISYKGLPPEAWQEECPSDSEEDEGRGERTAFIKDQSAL
- assay-explanation: furin cleavage Z-score vs untreated control; higher = more cleavage, active = 3.5 or more, inactive = 1 or less, 8 variable residues between constant flanks;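 also: purified furin at 1:10 enzyme:substrate in 50 mM HEPES pH 7.5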
- experimental-conditions: 7.5 min
This is one part of the list. The hit rate among all sequences tested is not known here.
Hi there, use one of these labels in your reply, thanks! true = active, false = inactive

INPUT: Fill in: this test's call for CALGKVIDTLAGNASASA [HC220] is ___
OUTPUT: false

INPUT: Fill in: this test's call for CALSPRPISYAGNASASA [HC737] is ___
OUTPUT: false

INPUT: Fill in: this test's call for CAAAARRRRHAGNASASA [FS-638] is ___
OUTPUT: true

INPUT: Fill in: this test's call for CAIDILAGYGAGNASASA [HC1085] is ___
OUTPUT: false

INPUT: Fill in: this test's call for CAVFPDLGVRAGNASASA [HC1451] is ___
OUTPUT: false

INPUT: Fill in: this test's call for CAFVAPGERPAGNASASA [HC911] is ___
OUTPUT: false

INPUT: Fill in: this test's call for CAFQNRRARHAGNASASA [FS-1589] is ___
OUTPUT: true

INPUT: Fill in: this test's call for CAVSPRVKRPAGNASASA [FS-1104] is ___
OUTPUT: false

INPUT: Fill in: this test's call for CAGDKRVKRRAGNASASA [FS-159] is ___
OUTPUT: true
